tested on: KB; assay: Growth inhibition of human KB cells after 72 hrs by methylene blue dye assay; type: functional, cell-based
experimentalReadout: IC50 (nM)

Example entries and their recorded answers appear below.
{"columns": ["mol", "quantityUnit", "IC50"],
 "data": [
  ["COc1ccc2c(N)c(C(=O)c3cc(OC)c(OC)c(OC)c3)ccc2c1", "nM", 8800],
  ["COc1ccc2c(C(=O)c3cc(OC)c(OC)c(OC)c3)c(O)ccc2c1", "nM", 8.2],
  ["COc1ccc2c(C(=O)c3cc(OC)c(OC)c(OC)c3)c[nH]c2c1", "nM", 4.6],
  ["CC(=O)O[C@H]1C(=O)[C@@]2(C)[C@H]([C@H](OC(=O)c3ccccc3)[C@]3(O)C[C@H](OC(=O)[C@H](O)[C@@H](NC(=O)c4ccccc4)c4ccccc4)C(C)=C1C3(C)C)[C@]1(OC(C)=O)CO[C@@H]1C[C@@H]2O", "nM", 3.3],
  ["COc1cc2c(c(OC)c1OC)-c1ccc(OC)c(=O)cc1[C@@H](NC(C)=O)CC2", "nM", 11]
]}

1 = CNc1ccc2cc(OC)ccc2c1C(=O)c1cc(OC)c(OC)c(OC)c1
2 = CC[C@]1(O)C[C@H]2CN(CCc3c([nH]c4ccccc34)[C@@](C(=O)OC)(c3cc4c(cc3OC)N(C=O)[C@H]3[C@@](O)(C(=O)OC)[C@H](OC(C)=O)[C@]5(CC)C=CCN6CC[C@]43[C@@H]65)C2)C1
Q: So which one has the bigger IC50 here, 1 or 2 ? Give the label of your selection.
Ans: 1

Numbers sourced from ChEMBL document CHEMBL1151752.
